experimental-target: KRAS G12S (Homo sapiens, UniProt P01116+P62937, G12S)
Sequence (P01116 1-169 isoform P01116-2 G12S limits assumed): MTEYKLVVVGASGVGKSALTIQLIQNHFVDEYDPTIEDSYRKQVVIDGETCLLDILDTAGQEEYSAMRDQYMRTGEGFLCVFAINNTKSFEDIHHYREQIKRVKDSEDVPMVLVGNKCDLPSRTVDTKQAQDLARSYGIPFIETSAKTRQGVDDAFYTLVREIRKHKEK
Sequence (P62937 whole entry): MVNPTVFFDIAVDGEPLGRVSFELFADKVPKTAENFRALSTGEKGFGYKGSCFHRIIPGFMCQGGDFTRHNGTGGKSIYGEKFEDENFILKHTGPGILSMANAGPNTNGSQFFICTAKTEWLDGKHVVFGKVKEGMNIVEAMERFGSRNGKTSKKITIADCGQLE
assay-name: Ras-Raf disruption / FRET / MOA assay (BRAF RBD)
Assay type: biochemical
reported-conditions: KRAS G12S FRET data IC50, Ras-Raf disruption, with Cyclophilin A
pIC50: −log10 of the molar value.
I'd be grateful if you could share measured pIC50 for these entries.

Recorded pIC50 for `CCn1c(-c2cccnc2[C@H](C)OC)c2c3cc(ccc31)-c1cc(O)cc(c1)C[C@H](NC(=O)[C@H](C(C)C)N(C)C(=O)[C@H](C)N(C)C(=O)[C@H]1CN1)C(=O)N1CCC[C@H](N1)C(=O)OCC(C)(C)C2` with KRAS G12S (Homo sapiens, UniProt P01116+P62937, G12S), please?
6.00 to 7.00

Entry `CCn1c(-c2cccnc2[C@H](C)OC)c2c3cc(ccc31)-c1cc(O)cc(c1)C[C@H](NC(=O)[C@H](C1CCCC1)N(C)C(=O)CN(C)C(=O)[C@@H]1N[C@@H]1C1CC1)C(=O)N1CCC[C@H](N1)C(=O)OCC(C)(C)C2` , system KRAS G12S (Homo sapiens, UniProt P01116+P62937, G12S): what pIC50 was measured?
7.00 to 8.00

So what pIC50 did `CC[C@H]1N[C@H]1C(=O)N(C)CC(=O)N(C)[C@H](C(=O)N[C@H]1Cc2cc(O)cc(c2)-c2ccc3c(c2)c(c(-c2cccnc2[C@H](C)OC)n3CC)CC(C)(C)COC(=O)[C@@H]2CCCN(N2)C1=O)C(C)C` get with KRAS G12S (Homo sapiens, UniProt P01116+P62937, G12S)?
7.00 to 8.00

Kindly state the measured pIC50 obtained for `CCn1c(-c2cccnc2[C@H](C)OC)c2c3cc(ccc31)-c1cc(O)cc(c1)C[C@H](NC(=O)[C@H](C(C)C)N(C)C(=O)CN(C)C(=O)[C@H]1N[C@H]1C(F)(F)F)C(=O)N1CCC[C@H](N1)C(=O)OCC(C)(C)C2` with KRAS G12S (Homo sapiens, UniProt P01116+P62937, G12S).
7.00 to 8.00

====

experimental-target: KRAS G12C (Homo sapiens, UniProt P01116+P62937, G12C)
Sequence (P01116 1-169 isoform P01116-2 G12C, one chain of several): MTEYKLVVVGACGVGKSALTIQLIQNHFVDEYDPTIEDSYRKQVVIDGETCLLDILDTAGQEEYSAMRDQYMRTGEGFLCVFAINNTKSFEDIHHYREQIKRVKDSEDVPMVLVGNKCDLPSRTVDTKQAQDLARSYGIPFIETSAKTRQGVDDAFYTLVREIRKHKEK
assay-name: Disruption of BRAF RBD interaction with Ras (FRET / MOA assay, with Cyclophilin A)
Assay type: biochemical
reported-conditions: read-out: KRAS G12C FRET data, IC50
pIC50: −log10 of the molar value.
measured-attribute: pIC50

Lab note: need pIC50 for CCn1c(-c2cccnc2[C@H](C)OC)c2c3cc(ccc31)-c1cc(O)cc(c1)C[C@H](NC(=O)[C@H](C(C)C)N(C)C(=O)[C@H]1CCCNC1)C(=O)N1CCC[C@H](N1)C(=O)OCC(C)(C)C2 [Example A243] on KRAS G12C (Homo sapiens, UniProt P01116+P62937, G12C), anyone have it?
7.00 to 8.00

Any idea what pIC50 came out for CCn1c(-c2cccnc2[C@H](C)OC)c2c3cc(ccc31)-c1csc(n1)C[C@H](NC(=O)[C@H](C(C)C)N1CCN(C)C1=O)C(=O)N1CCC[C@H](N1)C(=O)OCC(C)(C)C2 [Example A389] on KRAS G12C (Homo sapiens, UniProt P01116+P62937, G12C)?
6.00 to 7.00

// fetch KRAS G12C (Homo sapiens, UniProt P01116+P62937, G12C) pIC50 for CCn1c(-c2cnccc2COC)c2c3cc(ccc31)-c1cc(O)cc(c1)C[C@H](NC(=O)[C@H](C(C)C)N(C)C(=O)[C@H]1CCOC1)C(=O)N1CCC[C@H](N1)C(=O)OCC(C)(C)C2 [Example A26]
6.00 to 7.00

Report pIC50 for CCn1c(-c2cccnc2[C@H](C)OC)c2c3cc(ccc31)-c1csc(n1)C[C@H](NC(=O)[C@H](C(C)C)N(C)C(=O)N1CC3(CCN(C)CC3)C1)C(=O)N1CCC[C@H](N1)C(=O)OCC(C)(C)C2 [Example A513] tested on KRAS G12C (Homo sapiens, UniProt P01116+P62937, G12C).
6.00 to 7.00

Hi! What's the reported pIC50 for CCn1c(-c2cccnc2[C@H](C)OC)c2c3cc(ccc31)-c1csc(n1)C[C@H](NC(=O)[C@H](C(C)C)N(C)C(=O)N1CC(n3nc(C)cc3C)C1)C(=O)N1CCC[C@H](N1)C(=O)OCC(C)(C)C2 [Example A297] on KRAS G12C (Homo sapiens, UniProt P01116+P62937, G12C)?
6.00 to 7.00

====

experimental-target: KRAS G13D (Homo sapiens, UniProt P01116+P62937, G13D)
Sequence (P01116 1-169 isoform P01116-2 G13D limits assumed, one chain of several): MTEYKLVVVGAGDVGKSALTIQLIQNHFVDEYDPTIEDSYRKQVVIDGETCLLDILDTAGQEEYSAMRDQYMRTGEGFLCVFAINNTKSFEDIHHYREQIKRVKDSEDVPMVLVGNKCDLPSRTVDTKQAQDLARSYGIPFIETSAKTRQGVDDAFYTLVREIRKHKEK
assay-name: Disruption of BRAF RBD interaction with Ras (FRET / MOA assay, with Cyclophilin A)
Format: biochemical
reported-conditions: KRAS G13D; read-out: KRAS G13D FRET data IC50
Assignment: determine reported IC50 for the given molecules.

Could you share what IC50 was measured for CCn1c(-c2cccnc2[C@H](C)OC)c2c3cc(ccc31)-c1csc(n1)C[C@H](NC(=O)[C@H](C(C)C)N(C)C(=O)N1CC(N(C)C3CC3)C1)C(=O)N1CCC[C@H](N1)C(=O)OCC(C)(C)C2 (atropisomer, axis not shown) [Example A285] , tested on KRAS G13D (Homo sapiens, UniProt P01116+P62937, G13D)?
100 to 1000 nM

Look up IC50 with KRAS G13D (Homo sapiens, UniProt P01116+P62937, G13D) for this molecule: CCn1c(-c2cccnc2[C@H](C)OC)c2c3cc(ccc31)-c1cccc(c1)C[C@H](NC(=O)[C@H](C(C)C)N(C)C(=O)[C@H]1CCN(C(=O)CN)C1)C(=O)N1CCC[C@H](N1)C(=O)OCC(C)(C)C2 [Example A105]
1000 to 10000 nM

Give the reported IC50 for CCn1c(-c2cccnc2[C@H](C)OC)c2c3cc(ccc31)-c1csc(n1)C[C@H](NC(=O)[C@H](C(C)C)N(C)C(=O)N1CC3(CCCO3)C1)C(=O)N1CCC[C@H](N1)C(=O)OCC(C)(C)C2 (atropisomer, axis not shown) [Example A522] (system: KRAS G13D (Homo sapiens, UniProt P01116+P62937, G13D)).
1000 to 10000 nM

Find IC50 (KRAS G13D (Homo sapiens, UniProt P01116+P62937, G13D)) for the entry CCn1c(-c2cccnc2[C@H](C)OC)c2c3cc(ccc31)-c1csc(n1)C[C@H](NC(=O)[C@H](C(C)C)N(C)C(=O)N1CCCC13CCN(C)CC3)C(=O)N1CCC[C@H](N1)C(=O)OCC(C)(C)C2 [Example A498]
100 to 1000 nM

====

experimental-target: NRAS G12C (Homo sapiens, UniProt P01111+P62937, G12C)
Sequence (P01111 whole entry G12C, one chain of several): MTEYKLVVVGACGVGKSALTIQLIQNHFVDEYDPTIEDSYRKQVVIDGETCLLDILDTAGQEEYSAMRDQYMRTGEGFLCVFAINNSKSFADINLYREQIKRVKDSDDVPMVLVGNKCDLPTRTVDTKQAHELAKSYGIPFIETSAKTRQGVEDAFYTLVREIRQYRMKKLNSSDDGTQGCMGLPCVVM
assay-name: Ras-Raf disruption / FRET / MOA assay (BRAF RBD)
Assay type: biochemical
reported-conditions: NRAS G12C; read-out: NRAS G12C FRET data IC50
From the text: Disruption of […] Ras-binding Domain (BRAF^RBD) Interaction with K-Ras by Compounds of the Invention (also Called a FRET Assay or an MOA Assay) Note—The following protocol describes a procedure for monitoring disruption of K-Ras G12C (GMP-PNP) binding to BRAF^RBD by a compound of the invention. This protocol may also be executed substituting other Ras proteins or nucleotides, such as K-Ras G12D and K-Ras G13D. […]
Give IC50 for every item shown.

May I ask what IC50 has been recorded for CCn1c(-c2cccnc2[C@H](C)OC)c2c3cc(ccc31)-c1cc(O)cc(c1)C[C@H](NC(=O)[C@H](C(C)C)N(C)C(=O)[C@H]1CCN(S(=O)(=O)[C@@H]3CN3C)C1)C(=O)N1CCC[C@H](N1)C(=O)OCC(C)(C)C2 (single isomer, unassigned) ?
100 to 1000 nM

Sample `CCn1c(-c2cccnc2[C@H](C)OC)c2c3cc(ccc31)-c1cc(O)cc(c1)C[C@H](NC(=O)[C@H](C(C)C)N(C)C(=O)CC1CN(C(=O)[C@@H]3CN3)C1)C(=O)N1CCC[C@H](N1)C(=O)OCC(C)(C)C2` — what was its IC50?
10 to 100 nM

If you can, please state the reported IC50 value of CCn1c(-c2cccnc2[C@H](C)OC)c2c3cc(ccc31)-c1cc(O)cc(c1)C[C@H](NC(=O)[C@@H](COC1CCN(C(=O)[C@H]3CN3)CC1)C(C)C)C(=O)N1CCC[C@H](N1)C(=O)OCC(C)(C)C2 (atropisomer, axis not shown) .
10 to 100 nM

For the molecule shown here, CCn1c(-c2cccnc2[C@H](C)OC)c2c3cc(ccc31)-c1cc(O)cc(c1)C[C@H](NC(=O)[C@H](C(C)C)N(C)C(=O)[C@@]1(F)CCN(C(=O)[C@@H]3CN3)C1)C(=O)N1CCC[C@H](N1)C(=O)OCC(C)(C)C2 (atropisomer, axis not shown) , give the reported IC50.
10 to 100 nM

Which IC50 is reported for this molecule? `CCn1c(-c2cccnc2[C@H](C)OC)c2c3cc(ccc31)-c1cc(O)cc(c1)C[C@H](NC(=O)[C@H](C(C)C)N(C)C(=O)[C@@]1(F)CCN(C(=O)[C@H]3CN3)C1)C(=O)N1CCC[C@H](N1)C(=O)OCC(C)(C)C2`
< 10 nM

Which IC50 value is on record for CCn1c(-c2cccnc2[C@H](C)OC)c2c3cc(ccc31)-c1cc(O)cc(c1)C[C@H](NC(=O)[C@H](C(C)C)N(C)C(=O)CN(C)S(=O)(=O)[C@@H]1CN1C)C(=O)N1CCC[C@H](N1)C(=O)OCC(C)(C)C2 (single isomer, unassigned) ?
10 to 100 nM

Which IC50 value belongs to CCn1c(-c2cccnc2[C@H](C)OC)c2c3cc(ccc31)-c1csc(n1)C[C@H](NC(=O)[C@H](C(C)C)N(C)C(=O)N(C)CC1CN(C(=O)[C@H]3CN3)C1)C(=O)N1CCC[C@H](N1)C(=O)OCC(C)(C)C2 (atropisomer, axis not shown) ?
10 to 100 nM

Give its IC50 value. Item: CCn1c(-c2cccnc2[C@H](C)OC)c2c3cc(ccc31)-c1cc(O)cc(c1)C[C@H](NC(=O)[C@H](C(C)C)N(C)C(=O)[C@]1(F)CCN(C(=O)[C@@H]3CN3)C1)C(=O)N1CCC[C@H](N1)C(=O)OCC(C)(C)C2 (atropisomer, axis not shown)
< 10 nM

Origin of measurements: patent US20230233569A1
